All figures here come from ChEMBL document CHEMBL5724914.

assay: The drug is tested on Z-001 corresponding to mouse gut metagenome with ENA study accession number: PRJEB37062 and ENA sample accession number: ERS12561801 for biotransformation under anaerobic condition. The drug concentrations were measured over 9 timepoints collected between 0 and 24 hours of incubation by liquid-chromatography-coupled mass spectrometry (LC–MS); conditions: 2 µM; also: call rule not given here
readout.label: Bacterial Biotransformation

CCCc1nc2c(C)cc(-c3nc4ccccc4n3C)cc2n1Cc1ccc(-c2ccccc2C(=O)O)cc1; Compound metabolized
CCCc1nn(C)c2c(=O)[nH]c(-c3cc(S(=O)(=O)N4CCN(C)CC4)ccc3OCC)nc12.O=C(O)CC(O)(CC(=O)O)C(=O)O [SILDENAFIL CITRATE]; Compound NOT metabolized
CCN1CCCC1CNC(=O)c1cc(S(N)(=O)=O)ccc1OC (centres undefined) [SULPIRIDE]; Compound metabolized
O=c1[nH]c2ccccc2n1C1CCN(CCCC(c2ccc(F)cc2)c2ccc(F)cc2)CC1 [PIMOZIDE]; Compound metabolized
Fc1ccc([C@@H]2CCNC[C@H]2COc2ccc3c(c2)OCO3)cc1; Compound NOT metabolized
Cc1ccc(-c2nc3ccc(C)cn3c2CC(=O)N(C)C)cc1; Compound NOT metabolized
Cc1ccc(-c2cc(C(F)(F)F)nn2-c2ccc(S(N)(=O)=O)cc2)cc1; Compound NOT metabolized
Nc1nc2ccc(OC(F)(F)F)cc2s1; Compound metabolized

What the record says about CCN(CC)CCNC(C(=O)OCCC(C)C)c1ccccc1.Cl.Cl (centres undefined) : Bacterial Biotransformation is Compound metabolized
